These entries and their values trace back to the supplement of paper PMC12494721.

- Tested on: Ruminococcus gnavus DSM 108212
- Assay Name: fold change of Tryptamine concentration vs plate DMSO controls (fold change (ratio)); higher = more amine produced, active = hit call of the paper (significant change in both replicates, either direction)
- Experimental Parameters: incubation time: 27 h, anaerobic, 37 °C
Counter-ions that a name gives are not always drawn.
Tick Y if fold change of Tryptamine concentration is 1 or greater. Tick N if fold change of Tryptamine concentration is less than 1.

- Compound: "C/C(=C1\\CCOC(=O)S1)N(C=O)Cc1cnc(C)nc1N [Cycotiamine] (20 µM)"
  Assigned Label: "Y"
- Compound: "COc1ccc2cc(CCC(C)=O)ccc2c1 [Nabumetone] (20 µM)"
  Assigned Label: "N"
- Compound: "CC(C)(O)c1ccccc1CC[C@@H](SCC1(CC(=O)O)CC1)c1cccc(/C=C/c2ccc3ccc(Cl)cc3n2)c1 [Montelukast] (20 µM)"
  Assigned Label: "N"
- Compound: "COc1ccccc1N1CCN(CCCCNC(=O)c2ccc3ccccc3c2)CC1 (20 µM)"
  Assigned Label: "Y"
- Compound: "C[C@]12CC[C@@H]3c4ccc(OS(=O)(=O)O)cc4CC[C@H]3[C@@H]1CCC2=O [Estropipate piperazine salt] (20 µM)"
  Assigned Label: "N"

Enquiry: Could you please find out whether Cc1nnc(NS(=O)(=O)c2ccc(N)cc2)s1 [Sulfamethizole] (20 µM) has fold change of Tryptamine concentration that meets 1 or exceeds it?
Return: N

Enquiry: Reported fold change of Tryptamine concentration at or above 1? CCOC(=O)c1ccc(N)cc1 [Benzocaine] (20 µM)
Return: Y

Enquiry: Reported fold change of Tryptamine concentration at or above 1? NC(=O)Cc1cccc(C(=O)c2ccccc2)c1N [Nepafenac] (20 µM)
Return: Y

Enquiry: Kindly determine if fold change of Tryptamine concentration recorded for CN1CCCN=C1/C=C/c1cccs1 [Pyrantel tartrate] (20 µM) is above or exactly 1.
Return: Y

Enquiry: In plain terms: is recorded fold change of Tryptamine concentration at least 1 for Clc1ccc(CO/N=C(\Cn2ccnc2)c2ccc(Cl)cc2Cl)c(Cl)c1 [Oxiconazole nitrate] (20 µM) ?
Return: N

Enquiry: Exam item: decide whether the reported fold change of Tryptamine concentration for Nc1nc(NC2CC2)c2ncn([C@H]3C=C[C@@H](CO)C3)c2n1 [Abacavir sulfate] (20 µM) is at least 1.
Return: N

Enquiry: Quick check: does COC(=O)CCc1ccc(OCC(O)CNC(C)C)cc1 (configuration not stated) [Esmolol hydrochloride] (20 µM) have fold change of Tryptamine concentration greater than or equal to 1?
Return: Y

Enquiry: Does C[C@H](N[C@@H](CCc1ccccc1)C(=O)O)C(=O)N1CCC[C@H]1C(=O)O [Enalaprilat dihydrate] (20 µM) have a reported fold change of Tryptamine concentration of at least 1?
Return: Y

---

- Test system: Klebsiella aerogenes DSM 30053
- Assay Name: fold change of Putrescine concentration vs plate DMSO controls (fold change (ratio)); higher = more amine produced, active = hit call of the paper (significant change in both replicates, either direction)
- Experimental Parameters: incubation time: 27 h, anaerobic, 37 °C
Structures can show the parent of a compound that is named as a salt.
Measured fold change of Putrescine concentration by item

Worked examples follow.
- Compound: "CN1C2CCCC1CC(NC(=O)c1nn(C)c3ccccc13)C2 (stereo not drawn) [Granisetron] (20 µM)"
  Value: "1 (inactive)"
- Compound: "CC(C)NCC(O)COc1ccc(COCCOC(C)C)cc1 (stereo not drawn) [Bisoprolol hemifumarate] (20 µM)"
  Value: "0.846 (inactive)"
- Compound: "c1ccc2c(c1)-c1cccc3c1c-2cc1ccccc13 [Benzo[b]fluoranthene] (20 µM)"
  Value: "1.02 (inactive)"
- Compound: "CC(=O)[C@H]1CC[C@H]2[C@@H]3C[C@H](C)C4=CC(=O)CC[C@]4(C)[C@H]3[C@@H](O)C[C@]12C [Medrysone] (20 µM)"
  Value: "1 (inactive)"

Enquiry: Find the recorded fold change of Putrescine concentration belonging to CC(C)NC[C@H](O)COc1ccc(CC(N)=O)cc1 [(S,-) Atenolol] (20 µM) and report it.
Return: 1.03 (inactive)

Enquiry: Fill in: fold change of Putrescine concentration of N#Cc1ccc(C(c2ccc(C#N)cc2)n2cncn2)cc1 [Letrozole] (20 µM) is ___
Return: 1.01 (inactive)

Enquiry: I'd like to know its fold change of Putrescine concentration. The compound in question is c1ccc(CN(CC2=NCCN2)c2ccccc2)cc1 [Antazoline hydrochloride] (20 µM)
Return: 1.01 (inactive)

Enquiry: I have this compound here, COc1c(N2CCNC(C)C2)c(F)cc2c(=O)c(C(=O)O)cn(C3CC3)c12 (stereo not drawn) [Gatifloxacin] (20 µM) , and I need its recorded fold change of Putrescine concentration.
Return: 1.02 (inactive)

Enquiry: // fold change of Putrescine concentration lookup, key: CCCN(CCC)CCc1cccc2c1CC(=O)N2 [Ropinirole hydrochloride] (20 µM)
Return: 1.02 (inactive)

Enquiry: Which fold change of Putrescine concentration is listed for CN1CCN2c3ncccc3Cc3ccccc3C2C1 (stereo not drawn) [Mirtazapine] (20 µM) ?
Return: 0.983 (inactive)

Enquiry: Fill in the blank: the reported fold change of Putrescine concentration of CCCc1cc(C(N)=S)ccn1 [Prothionamide] (20 µM) is ____.
Return: 0.982 (inactive)

Enquiry: Endpoint output: fold change of Putrescine concentration of CCOC(=O)C1=C(C)NC(C)=C(C(=O)OC)C1c1cccc(Cl)c1Cl (stereo not drawn) [Felodipine] (20 µM) . Value?
Return: 0.97 (inactive)

Enquiry: # fold change of Putrescine concentration lookup, item C#CCN(C)Cc1ccccc1 [Pargyline hydrochloride] (20 µM)
Return: 1.01 (inactive)

Enquiry: Fill in the blank: the reported fold change of Putrescine concentration of CC(=O)N(CC(C)C(=O)O)c1c(I)cc(I)c(N)c1I (stereo not drawn) [Iocetamic acid] (20 µM) is ____.
Return: 1 (inactive)

Enquiry: I would be grateful if you could share the reported fold change of Putrescine concentration for CC[C@H]1OC(=O)[C@H](C)[C@@H](O[C@H]2C[C@@](C)(OC)[C@@H](O)[C@H](C)O2)[C@H](C)[C@@H](O[C@@H]2O[C@H](C)C[C@H](N(C)C)[C@H]2O)[C@](C)(OC)C[C@@H](C)C(=O)[C@H](C)[C@@H](O)[C@]1(C)O [Clarithromycin] (20 µM) .
Return: 0.888 (inactive)

Enquiry: Reported fold change of Putrescine concentration, compound CN(C(=O)C(Cl)Cl)c1ccc(OC(=O)c2ccco2)cc1 [Diloxanide furoate] (20 µM) : ____
Return: 1 (inactive)

Enquiry: Entry under review: O=C(CCCCCCC(=O)Nc1ccccc1)NO [Vorinostat] (20 µM) . Reported fold change of Putrescine concentration?
Return: 0.99 (inactive)
